Data origin, for the record: PubChem BioAssay AID651957

- system_tested: Nuclear receptor coactivator 2 (Homo sapiens)
- test_name: decrease of SRC2 fusion reporter luminescence – cell-based, SRC2 inhibitor project, primary screen (AID 651957);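 note: 0% = DMSO treated cells and 100% = cells given Gossypol at 36 µM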
- assay_setup: HEK293 GAL4-SRC2 luciferase reporter, at 9 µM, active compounds read high
About 620 (0.17%) of roughly 370,000 compounds were called active. What follows is part of a selection rich in actives, with near analogues and random picks from the rest.
For each of the compounds below, state its inhibition.
Unit % implied. Number only.

Lab note: measured inhibition of Cc1ccccc1CCC[C@@H](CC1CCCCC1)CN(C)C(=O)Oc1ccccc1 was -0.22

Lab note: measured inhibition of COC1C(O)C(C)OC(OC2CCC3(C=O)C(CCC4C3CCC3(C)C(C5=CC(=O)OC5)CCC43O)C2)C1O (stereo not given) was 55

Lab note: measured inhibition of CCN1CCN(C(=O)Cc2coc3cc(C)cc(C)c23)CC1 was -5.27

Lab note: measured inhibition of CC(C)n1c(=O)c(C=Nc2ccc(Br)cc2)c(O)n(Cc2ccco2)c1=O was 8.44

Lab note: measured inhibition of O=C(COc1ccc2ccccc2c1)N1CCN(Cc2ccncc2)CC1 was 9.05
